# subject of test: FKBP F36L (Homo sapiens, UniProt P62942, F37L)
# procedure details: Competitive Binding FP Assay, F36L mutant FKBP
assay metric: IC50 (nM)
Kindly answer with a numeric value in nM, unit omitted.

CC[C@H](C(=O)N1CCCC[C@H]1C(=O)O[C@H](CCN1CCOCC1)c1cccc(OCC(=O)O)c1)c1cc(OC)c(OC)c(OC)c1 68

Tell me measured IC50 for CC[C@H](C(=O)N1CCCC[C@H]1C(=O)O[C@H](CCc1ccc(OC)c(OC)c1)c1cccc(OCC(=O)O)c1)c1cc(OC)c(OC)c(OC)c1 please.
6.2

----------
# pIC50 per record follows
# subject of test: FKBP F36M (Homo sapiens, UniProt P62942, F37M)
# Construct: made in house
# Sequence (P62942 whole entry F37M): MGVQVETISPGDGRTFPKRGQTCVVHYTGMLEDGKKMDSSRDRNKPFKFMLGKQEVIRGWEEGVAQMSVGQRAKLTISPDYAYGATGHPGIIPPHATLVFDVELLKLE
# procedure details: Competitive Binding FP Assay, F36M mutant FKBP
Counter-ions that a name gives are not always drawn.
Would you please state pIC50, meaning minus log10 of the concentration in mol/L, as a bare number?

Worked cases, pIC50 given:
compound	assay metric	value measured
CC[C@H](C(=O)N1CCCC[C@H]1C(=O)O[C@H](CCc1cccnc1)c1cccc(OCC(=O)O)c1)c1cc(OC)c(OC)c(OC)c1 [AP14252, hydrochloride]	pIC50	7.27
CC[C@H](C(=O)N1CCCC[C@H]1C(=O)O[C@H](CCN1CCOCC1)c1cccc(OCC(=O)O)c1)c1cc(OC)c(OC)c(OC)c1 [AP14246]	pIC50	7.28

Tell me measured pIC50 for CC[C@H](C(=O)N1CCCC[C@H]1C(=O)O[C@H](CCc1ccc(OC)c(OC)c1)c1cccc(OCC(=O)O)c1)c1cc(OC)c(OC)c(OC)c1 [AP1867] please.
8.00

The values you see were collected from patent US8436183B2.
